B1: VH:VL chains; a variant is named by its letters at X, in order (parent)
chain 1: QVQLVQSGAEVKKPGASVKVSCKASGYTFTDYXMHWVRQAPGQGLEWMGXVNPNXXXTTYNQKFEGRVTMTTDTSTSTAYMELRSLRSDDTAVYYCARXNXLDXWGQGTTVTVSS
chain 2: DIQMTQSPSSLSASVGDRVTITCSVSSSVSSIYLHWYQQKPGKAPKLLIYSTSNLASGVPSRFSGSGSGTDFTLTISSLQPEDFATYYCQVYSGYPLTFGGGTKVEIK

- Variants of: B1
- Assay text: yeast display scFab, FACS + sequencing
- Condition label: with MET
The other results are listed elsewhere or left out. No count for the full screen is at hand.
Endpoint name: antigen binding call

[[record]]
variant_label = "FRGRGFLS"
endpoint_name = "antigen binding call"
meas_value = "no binding"

[[record]]
variant_label = "YRGAGAGS"
endpoint_name = "antigen binding call"
meas_value = "binds"

[[record]]
variant_label = "VEGTNDVV"
endpoint_name = "antigen binding call"
meas_value = "no binding"

[[record]]
variant_label = "FEGGTDVV"
endpoint_name = "antigen binding call"
meas_value = "no binding"

[[record]]
variant_label = "VRAGGDAV"
endpoint_name = "antigen binding call"
meas_value = "binds"

[[record]]
variant_label = "FRRGGAGY"
endpoint_name = "antigen binding call"
meas_value = "binds"

[[record]]
variant_label = "ARAGDAVV"
endpoint_name = "antigen binding call"
meas_value = "no binding"

[[record]]
variant_label = "SAERSAAF"
endpoint_name = "antigen binding call"
meas_value = "no binding"

[[record]]
variant_label = "FRGRGSLS"
endpoint_name = "antigen binding call"
meas_value = "binds"

[[record]]
variant_label = "YAGGTSSD"
endpoint_name = "antigen binding call"
meas_value = "no binding"

[[record]]
variant_label = "VRAGGDAA"
endpoint_name = "antigen binding call"
meas_value = "binds"

[[record]]
variant_label = "YTTGGYLV"
endpoint_name = "antigen binding call"
meas_value = "no binding"

[[record]]
variant_label = "VTGEDDVD"
endpoint_name = "antigen binding call"
meas_value = "no binding"

[[record]]
variant_label = "YEGTGSAD"
endpoint_name = "antigen binding call"
meas_value = "no binding"

[[record]]
variant_label = "VRERGSAV"
endpoint_name = "antigen binding call"
meas_value = "binds"

[[record]]
variant_label = "VTGTGDGV"
endpoint_name = "antigen binding call"
meas_value = "no binding"

[[record]]
variant_label = "VRGGGDAA"
endpoint_name = "antigen binding call"
meas_value = "no binding"

[[record]]
variant_label = "DTAESDLD"
endpoint_name = "antigen binding call"
meas_value = "no binding"

[[record]]
variant_label = "FRTRDAAA"
endpoint_name = "antigen binding call"
meas_value = "binds"

[[record]]
variant_label = "YRGGGYLV"
endpoint_name = "antigen binding call"
meas_value = "binds"

[[record]]
variant_label = "SEEEGSGV"
endpoint_name = "antigen binding call"
meas_value = "no binding"

[[record]]
variant_label = "YTGTSSAD"
endpoint_name = "antigen binding call"
meas_value = "no binding"

[[record]]
variant_label = "SEARSSAS"
endpoint_name = "antigen binding call"
meas_value = "no binding"

[[record]]
variant_label = "DAKEGDGV"
endpoint_name = "antigen binding call"
meas_value = "no binding"

[[record]]
variant_label = "YKAGDSVA"
endpoint_name = "antigen binding call"
meas_value = "binds"

[[record]]
variant_label = "FRGRGFSA"
endpoint_name = "antigen binding call"
meas_value = "no binding"

[[record]]
variant_label = "FRGRGDLS"
endpoint_name = "antigen binding call"
meas_value = "no binding"

[[record]]
variant_label = "FKGKGAVA"
endpoint_name = "antigen binding call"
meas_value = "no binding"

[[record]]
variant_label = "YRERGAAV"
endpoint_name = "antigen binding call"
meas_value = "binds"

[[record]]
variant_label = "YRGGDSAY"
endpoint_name = "antigen binding call"
meas_value = "binds"

[[record]]
variant_label = "VKTGGDVA"
endpoint_name = "antigen binding call"
meas_value = "no binding"

[[record]]
variant_label = "ARGAGYGS"
endpoint_name = "antigen binding call"
meas_value = "no binding"

[[record]]
variant_label = "YKGRGFSD"
endpoint_name = "antigen binding call"
meas_value = "no binding"

[[record]]
variant_label = "YRAGDAVV"
endpoint_name = "antigen binding call"
meas_value = "binds"

[[record]]
variant_label = "FTTRGAVA"
endpoint_name = "antigen binding call"
meas_value = "no binding"

[[record]]
variant_label = "YRGAGYGS"
endpoint_name = "antigen binding call"
meas_value = "no binding"

[[record]]
variant_label = "FEEEGSAA"
endpoint_name = "antigen binding call"
meas_value = "no binding"

[[record]]
variant_label = "VRAGDDAV"
endpoint_name = "antigen binding call"
meas_value = "no binding"

[[record]]
variant_label = "YRGAGAWS"
endpoint_name = "antigen binding call"
meas_value = "binds"

[[record]]
variant_label = "YKGGSSAD"
endpoint_name = "antigen binding call"
meas_value = "binds"

[[record]]
variant_label = "YRGAASSD"
endpoint_name = "antigen binding call"
meas_value = "binds"

[[record]]
variant_label = "YRGAGAVS"
endpoint_name = "antigen binding call"
meas_value = "binds"

[[record]]
variant_label = "VEEEGDGV"
endpoint_name = "antigen binding call"
meas_value = "no binding"

[[record]]
variant_label = "FRAGGAVY"
endpoint_name = "antigen binding call"
meas_value = "binds"

[[record]]
variant_label = "YRGGDDLY"
endpoint_name = "antigen binding call"
meas_value = "no binding"

[[record]]
variant_label = "ATGEADAS"
endpoint_name = "antigen binding call"
meas_value = "no binding"

[[record]]
variant_label = "VRAEGSVA"
endpoint_name = "antigen binding call"
meas_value = "binds"

[[record]]
variant_label = "YTEGDDGV"
endpoint_name = "antigen binding call"
meas_value = "no binding"

[[record]]
variant_label = "DKGGSSLD"
endpoint_name = "antigen binding call"
meas_value = "no binding"

[[record]]
variant_label = "FRTKAAVY"
endpoint_name = "antigen binding call"
meas_value = "no binding"

[[record]]
variant_label = "VKGRASGF"
endpoint_name = "antigen binding call"
meas_value = "no binding"

[[record]]
variant_label = "YRRRSSLA"
endpoint_name = "antigen binding call"
meas_value = "binds"

[[record]]
variant_label = "VRTRGDGA"
endpoint_name = "antigen binding call"
meas_value = "no binding"

[[record]]
variant_label = "FKGEDAVA"
endpoint_name = "antigen binding call"
meas_value = "no binding"

[[record]]
variant_label = "YTTRGAGA"
endpoint_name = "antigen binding call"
meas_value = "no binding"

[[record]]
variant_label = "FRAGGSAA"
endpoint_name = "antigen binding call"
meas_value = "binds"

[[record]]
variant_label = "DEARNAGA"
endpoint_name = "antigen binding call"
meas_value = "no binding"

[[record]]
variant_label = "VRERGDAA"
endpoint_name = "antigen binding call"
meas_value = "no binding"

[[record]]
variant_label = "DTEEGDWV"
endpoint_name = "antigen binding call"
meas_value = "no binding"

